# tested target: human norepinephrine transporter (hNET) (Homo sapiens)
Structures can show the parent of a compound that is named as a salt.
Overview of recorded Ki for various molecules
A number alone suffices; assume nM.

Known results for molecules:
[
  {
    "molecule": "Fc1c(F)c(F)c(O[C@@H](c2ccccc2)[C@@H]2CNCCO2)c(F)c1F [Example 85, fumarate]",
    "unit descriptor": "nM",
    "Ki": 10.9
  },
  {
    "molecule": "COc1cccc([C@H](Oc2ccc(F)cc2OC)[C@@H]2CNCCO2)c1 [Example 68, hydrochloride]",
    "unit descriptor": "nM",
    "Ki": 20.1
  },
  {
    "molecule": "Cc1cccc([C@H](Oc2ccc(F)cc2Cl)[C@@H]2CNCCO2)c1 [Example 56, hydrochloride]",
    "unit descriptor": "nM",
    "Ki": 13.6
  }
]

As a next step, examine the molecule that follows.
Q: Item Fc1cccc([C@H](Oc2cc(F)ccc2Cl)[C@@H]2CNCCO2)c1 [Example 41, hydrochloride] has what recorded Ki?
A: 7.3

###

# tested target: human norepinephrine transporter (hNET) (Homo sapiens, UniProt P23975)
# Sequence (P23975 whole entry): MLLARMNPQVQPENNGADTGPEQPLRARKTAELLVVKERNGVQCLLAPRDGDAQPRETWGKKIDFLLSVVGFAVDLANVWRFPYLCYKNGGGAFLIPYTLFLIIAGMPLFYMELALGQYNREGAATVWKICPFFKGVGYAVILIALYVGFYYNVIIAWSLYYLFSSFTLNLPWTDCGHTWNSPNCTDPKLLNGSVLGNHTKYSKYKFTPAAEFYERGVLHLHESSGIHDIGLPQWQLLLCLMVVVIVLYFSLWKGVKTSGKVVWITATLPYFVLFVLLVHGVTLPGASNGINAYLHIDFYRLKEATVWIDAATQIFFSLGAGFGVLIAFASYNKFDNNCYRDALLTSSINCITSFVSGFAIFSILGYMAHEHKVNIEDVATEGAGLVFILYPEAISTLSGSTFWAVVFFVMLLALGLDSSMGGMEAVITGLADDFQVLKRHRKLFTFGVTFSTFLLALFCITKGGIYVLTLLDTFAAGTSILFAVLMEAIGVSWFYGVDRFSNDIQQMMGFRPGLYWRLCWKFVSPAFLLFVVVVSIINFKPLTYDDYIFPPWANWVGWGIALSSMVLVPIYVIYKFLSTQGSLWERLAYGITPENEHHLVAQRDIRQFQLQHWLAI
Counter-ions that a name gives are not always drawn.
experimental readout: Ki (nM)
A number alone suffices; assume nM.

Known results for molecules:
[
  {
    "molecule": "COc1cccc([C@H](Oc2cc(F)ccc2Cl)[C@@H]2CNCCO2)c1 [Example 69, hydrochloride]",
    "Ki [nM]": 7.92
  },
  {
    "molecule": "COc1ccc(Cl)cc1O[C@@H](c1ccccc1)[C@@H]1CNCCO1 [Example 84, fumarate]",
    "Ki [nM]": 10.1
  },
  {
    "molecule": "Cc1c(Cl)cccc1O[C@@H](c1ccccc1)[C@@H]1CNCCO1 [Example 82, fumarate]",
    "Ki [nM]": 11.9
  },
  {
    "molecule": "Fc1cccc([C@H](Oc2ccc(F)cc2F)[C@@H]2CNCCO2)c1 [Example 64, hydrochloride]",
    "Ki [nM]": 13.8
  },
  {
    "molecule": "Fc1cccc([C@H](Oc2ccc(F)cc2Cl)[C@@H]2CNCCO2)c1 [Example 37, hydrochloride]",
    "Ki [nM]": 13.1
  },
  {
    "molecule": "COc1ccc(O[C@@H](c2ccccn2)[C@@H]2CNCCO2)c(Cl)c1 [Example 106, fumarate]",
    "Ki [nM]": 13.8
  },
  {
    "molecule": "COc1cc(C)ccc1O[C@@H](c1ccc(F)cc1)[C@@H]1CNCCO1 [Example 42, hydrochloride]",
    "Ki [nM]": 11.4
  },
  {
    "molecule": "Fc1cccc([C@H](Oc2cc(F)cc(F)c2Cl)[C@@H]2CNCCO2)c1 [Example 48, hydrochloride]",
    "Ki [nM]": 16.5
  },
  {
    "molecule": "COc1cc(F)ccc1O[C@@H](c1cccc(F)c1)[C@@H]1CNCCO1 [Example 46, hydrochloride]",
    "Ki [nM]": 15.1
  },
  {
    "molecule": "Cc1ccccc1O[C@@H](c1cccc(F)c1)[C@@H]1CNCCO1 [Example 49, hydrochloride]",
    "Ki [nM]": 6.8
  }
]

As a next step, examine the molecule that follows.
Q: Item COc1cc(Br)ccc1O[C@@H](c1ccccc1)[C@@H]1CNCCO1 [Example 94, fumarate] has what recorded Ki?
A: 12.1

Source of measurements: patent US20080161309A1
